test system: NCI-H446; experiment: excess over highest single agent (ExcessHSA) synergy score, 6x6 matrix; higher = less synergy (more negative = stronger synergy); conditions: 72 h; CellTiter-Glo viability
The full ranking holds about 1,900 compounds; the median of “excess over highest single agent (ExcessHSA) synergy score, 6x6 matrix” is about -83, and the lowest 2% start at about -370. The list comes from a sample in which the lowest values are over-represented; it also holds close analogues and randomly drawn compounds.
PROPERTY_NAME: excess over highest single agent
# respond with the number and nothing more

# count of solved cases: 5
{"COMPOUND": "CCOc1cc(/C=C2/C(=O)N(c3ccccc3)N=C2C)cc(Cl)c1OCC(=O)OC + Cc1sc2c(c1C)C(c1ccc(Cl)cc1)=N[C@@H](CC(=O)OC(C)(C)C)c1nnc(C)n1-2", "TESTED_SYSTEM": "NCI-H446", "excess over highest single agent": 76.6}
{"COMPOUND": "Cc1ccccc1-n1c(Cn2nc(-c3cccc(O)c3)c3c(N)ncnc32)nc2cccc(C)c2c1=O + Cc1sc2c(c1C)C(c1ccc(Cl)cc1)=N[C@@H](CC(=O)OC(C)(C)C)c1nnc(C)n1-2", "TESTED_SYSTEM": "NCI-H446", "excess over highest single agent": -224}
{"COMPOUND": "CNC(=O)c1ccc2c(C(=Nc3cccc(CN(C)C)c3)c3ccccc3)c(O)[nH]c2c1 + Cc1sc2c(c1C)C(c1ccc(Cl)cc1)=N[C@@H](CC(=O)OC(C)(C)C)c1nnc(C)n1-2", "TESTED_SYSTEM": "NCI-H446", "excess over highest single agent": 93.9}
{"COMPOUND": "Cc1cc(Nc2nc(N[C@@H](C)c3ccc(F)cc3)c(C#N)cc2F)n[nH]1 + Cc1sc2c(c1C)C(c1ccc(Cl)cc1)=N[C@@H](CC(=O)OC(C)(C)C)c1nnc(C)n1-2", "TESTED_SYSTEM": "NCI-H446", "excess over highest single agent": -209}
{"COMPOUND": "O=C(C[C@@H]1C/C=C/CCC(=O)O[C@H](c2ccccc2)CNC1=O)NCc1ccc(Cl)cc1 + Cc1sc2c(c1C)C(c1ccc(Cl)cc1)=N[C@@H](CC(=O)OC(C)(C)C)c1nnc(C)n1-2", "TESTED_SYSTEM": "NCI-H446", "excess over highest single agent": -98.1}

INPUT: Please respond with reported excess over highest single agent (system NCI-H446) for CCc1ccc(C(=O)Nc2cc(CN3CCN(C)CC3)cc(C(F)(F)F)c2)cc1C#Cc1cnc2ccnn2c1 + Cc1sc2c(c1C)C(c1ccc(Cl)cc1)=N[C@@H](CC(=O)OC(C)(C)C)c1nnc(C)n1-2 .
OUTPUT: -7.02

INPUT: Please respond with reported excess over highest single agent (system NCI-H446) for CC(C)(C)OC(=O)Nc1ccc(-c2cc(C(=O)NCCCCCCC(=O)NO)no2)cc1 + Cc1sc2c(c1C)C(c1ccc(Cl)cc1)=N[C@@H](CC(=O)OC(C)(C)C)c1nnc(C)n1-2 .
OUTPUT: -161

INPUT: Please respond with reported excess over highest single agent (system NCI-H446) for CO[C@H]1C(=O)[C@]2(C)[C@@H](OC)C[C@H]3OC[C@@]3(OC(C)=O)[C@H]2[C@H](OC(=O)c2ccccc2)[C@]2(O)C[C@H](OC(=O)[C@H](O)[C@@H](NC(=O)OC(C)(C)C)c3ccccc3)C(C)=C1C2(C)C + Cc1sc2c(c1C)C(c1ccc(Cl)cc1)=N[C@@H](CC(=O)OC(C)(C)C)c1nnc(C)n1-2 .
OUTPUT: -412

INPUT: Please respond with reported excess over highest single agent (system NCI-H446) for COc1cc(OC)c(NC(=O)Nc2cc(C)on2)cc1Cl + Cc1sc2c(c1C)C(c1ccc(Cl)cc1)=N[C@@H](CC(=O)OC(C)(C)C)c1nnc(C)n1-2 .
OUTPUT: -142

INPUT: Please respond with reported excess over highest single agent (system NCI-H446) for COC1=C(OC)C(=O)C(C/C=C(\C)CC/C=C(\C)CC/C=C(\C)CC/C=C(\C)CC/C=C(\C)CC/C=C(\C)CC/C=C(\C)CC/C=C(\C)CC/C=C(\C)CCC=C(C)C)=C(C)C1=O + Cc1sc2c(c1C)C(c1ccc(Cl)cc1)=N[C@@H](CC(=O)OC(C)(C)C)c1nnc(C)n1-2 .
OUTPUT: -97.2

INPUT: Please respond with reported excess over highest single agent (system NCI-H446) for CN1c2ccccc2C(=O)N2CCc3c([nH]c4ccccc34)[C@@H]21 + Cc1sc2c(c1C)C(c1ccc(Cl)cc1)=N[C@@H](CC(=O)OC(C)(C)C)c1nnc(C)n1-2 .
OUTPUT: -226
